# System: CAKI-1
# PROTOCOL_TEXT: NCI tumour cell line growth inhibition, 48 h
Active and inactive are the calls of the source. Rule as the data show it: active = GI50 up to about 1.1 µM and inactive = higher.
Select the correct class. Options are t for active, f for inactive and nothing else.

Please review the following examples before continuing.
O=S(=O)(O)c1cc(O)c2c(O)c(/N=N/c3cccc4ccccc34)c(S(=O)(=O)O)cc2c1	f
NC1=NC2=C(CCCC2)C(c2cccs2)S1 (centres undefined)	f
CCN(CC)CCCNC(=O)C1COc2cc(-c3cc(=O)c4ccccc4o3)ccc2O1 (centres undefined)	f

In: For N#CC(NC12CC3CC(CC(C3)C1)C2)c1ccc2c(c1)OCO2 (centres undefined) , what call appears in the results of this test?
Out: f

In: For C/C(=C\CCC1=CC(=O)OC1)CCC1C2C(=O)CC(C)[C@@]3(C)CC[C@]1(C)[C@@]23C (some centres undefined) , what call appears in the results of this test?
Out: f

In: For Cc1c(C)n(-c2ccccc2)c2nc([S+](C)[O-])nc([S+](C)[O-])c12 (centres undefined) , what call appears in the results of this test?
Out: f

In: For COC1C(O)C(O[C@H]2CC[C@@]3(C)C(CC[C@@H]4[C@@H]3CC[C@]3(C)[C@@H](C(C)OC5OC(CO)C(O)C(O)C5O)CC[C@]43O)C2)OC(C)C1OC1OC(CO)C(O)C(O)C1O (some centres undefined) , what call appears in the results of this test?
Out: f

In: For CCOC(=O)C1=CNC(C(=O)OCC)C1c1cccn1-c1ccccc1 (centres undefined) , what call appears in the results of this test?
Out: f

In: For O=C1C2=C(CC3C(C2)C3(Br)Br)C(=O)C2=C1CC1C(C2)C1(Br)Br (centres undefined) , what call appears in the results of this test?
Out: f

In: For O=C(/C=C/c1ccc(OCc2ccccc2)c(OCc2ccccc2)c1)OCc1ccccc1 , what call appears in the results of this test?
Out: f

In: For CCC(=O)NCCc1c2c3c(ccnc3c3ncsc13)-c1ccccc1N2 , what call appears in the results of this test?
Out: f

In: For O=C(NCc1cccnc1)NCc1cccnc1 , what call appears in the results of this test?
Out: f

In: For Cn1c(/C=C/CO)c(CO)c2c1C(=O)C=C(N1CC1)C2=O , what call appears in the results of this test?
Out: t

----------
# Test system: OVCAR-5
# PROTOCOL_TEXT: NCI tumour cell line growth inhibition, 48 h
Calls of active or inactive are those of the source. Cut-off read from the data, not from the text of the source: active = GI50 up to about 1.1 µM and inactive = higher.
Give measured GI50 for each item. Keep answers brief.

Check out these entries, answers already filled in.
N#C/C(=C\c1ccc(F)cc1)c1nc(-c2cc3ccccc3oc2=O)cs1	> 100 µM (inactive)
O=C(CC(C(=O)O)N1CCOCC1)c1ccccc1 (stereo not given)	22.3 µM (inactive)
C=C1CCC([N+](=O)[O-])[C@](C)(N=O)CC[C@@H]2C1CC2(C)C (stereo not given in full)	16.1 µM (inactive)
CCCCCc1c(CCCC)c(O)nc2nc(NC(=O)CCCC)ccc12	> 100 µM (inactive)

The reported value for COC1C(O)C(O[C@H]2CC[C@@]3(C)C(CC[C@@H]4[C@@H]3CC[C@]3(C)[C@@H](C(C)OC5OC(CO)C(O)C(O)C5O)CC[C@]43O)C2)OC(C)C1OC1OC(CO)C(O)C(O)C1O (stereo not given in full) in terms of GI50 is > 100 µM (inactive)
